Test system: HL-60(TB) leukemia
assay.notes: NCI tumour cell line growth inhibition, 48 h; in the data active means GI50 below about 0.43 µM; inactive means the rest
Outcome codes: active, inactive

>>> answer_label("Nc1cc2cccc[n+]2c2cc(Cl)ccc12")
"inactive"
>>> answer_label("Cc1[c-]onc1C.Cc1[c-]onc1C.[Ag].[Ag].[NH-]S(=O)(=O)c1ccc(N=Nc2cc(N=Nc3ccc(S([NH-])(=O)=O)cc3)c3c(NC(=O)C(Cl)Cl)cccc3c2OC(=O)C(Cl)Cl)cc1")
"inactive"
>>> answer_label("CN(C)S(=O)(=O)c1ccc(NC(=O)COC(=O)c2ccc(S(=O)(=O)N3CCCCC3)cc2)cc1")
"inactive"
>>> answer_label("Cc1ccc2c(ccc3c[n+]4c5ccccc5ccc4n32)c1")
"inactive"
>>> answer_label("CN1CCN(CCc2cccc(C(=O)c3cnn(-c4ccc(F)cc4)c3N)c2)CC1")
"inactive"
>>> answer_label("CCCCCn1c(=N)n(CC(O)COc2cccc(C)c2)c2ccccc21 (centres undefined)")
"inactive"
>>> answer_label("C[C@@H](C(=O)Nc1ccc(Cl)cc1)C1CCC(c2ccnc3ccc(F)cc23)CC1 (some centres undefined)")
"inactive"
>>> answer_label("C[C@H](Nc1ncnc2nc[nH]c12)c1cc2cccc(Cl)c2c(=O)n1-c1ccccc1")
"inactive"
>>> answer_label("COC(=O)[C@@H](C)C[C@H](Cc1ccccc1)NC(=O)c1nc([C@@H](C[C@H](C(C)C)N(C)C(=O)[C@@H](NC(=O)[C@H]2CCCCN2C)C(C)C)OC(C)=O)sc1C")
"active"
>>> answer_label("Oc1ccc(-c2nnc3sc(-c4ccc(F)cc4)nn23)cc1")
"inactive"
>>> answer_label("COc1c(CCC[P+](c2ccccc2)(c2ccccc2)c2ccccc2)cc2c(c1OC)OCO2")
"active"
>>> answer_label("COc1ccc2c(c1)O/C(=C\\c1cccc(OCC(=O)Nc3nc4c(s3)CCCC4)c1)C2=O")
"inactive"
>>> answer_label("CCN(Cc1ccc(F)c(F)c1)c1ccc(CO)c(Cl)c1")
"inactive"
>>> answer_label("COc1ccc(N2C(C)=C(C#N)C34C(=O)N(c5ccccc5)C(=O)C3=C(O)C=CC24O)cc1 (centres undefined)")
"inactive"

====

Tested on: OVCAR-4 ovarian
assay.notes: NCI tumour cell line growth inhibition, 48 h; in the data active = GI50 below about 0.43 µM; inactive = the rest
Outcome codes: active, inactive

>>> answer_label("COc1ccc2nc3cc([N+](=O)[O-])ccc3c(NCCCCCN(C)C)c2c1")
"active"
>>> answer_label("COC(=O)[C@H](Cc1cn(C)cn1)NC(=O)[C@H](Cc1c[nH]c2ccccc12)NC(=O)Nc1cc(C(F)(F)F)cc(C(F)(F)F)c1")
"inactive"
>>> answer_label("O=CNc1c(Cl)cc2c(c1Cl)Cc1cc([N+](=O)[O-])ccc1-2")
"inactive"
>>> answer_label("COC(=O)[C@@H](C)C[C@H](Cc1ccccc1)NC(=O)c1nc([C@@H](C[C@H](C(C)C)N(C)C(=O)[C@@H](NC(=O)[C@H]2CCCCN2C)C(C)C)OC(C)=O)sc1C")
"active"

====

Entries and their GI50 values follow.
Test system: HT29 colon
assay.notes: NCI tumour cell line growth inhibition, 48 h
experimental.endpoint: GI50

>>> result_value("CC/C=C\\C=C/C(=O)N/C=C/CC1Cc2cccc(O)c2C(=O)O1 (stereo not drawn)")
"23.5 µM"
>>> result_value("CNC(=O)n1ccc2cc(Oc3ccnc(NC(=O)c4ccc(C5CCN(CCO)CC5)cc4)c3)c(OCCOC)cc21")
"0.801 µM"
>>> result_value("COC(=O)/C=C/C=C(c1ccccc1)c1ccccc1")
"3.85 µM"
>>> result_value("Nc1cc2cccc[n+]2c2cc(Cl)ccc12")
"37.4 µM"
>>> result_value("CC(C)(C)C#CC1=C(Br)C(=O)OC1")
"0.116 µM"
>>> result_value("COC(=O)[C@H](Cc1cn(C)cn1)NC(=O)[C@H](Cc1c[nH]c2ccccc12)NC(=O)Nc1cc(C(F)(F)F)cc(C(F)(F)F)c1")
"> 10 µM"
>>> result_value("CN1CCN(CCc2cccc(C(=O)c3cnn(-c4ccc(F)cc4)c3N)c2)CC1")
"> 25 µM"
>>> result_value("CNC(=O)c1cncc(/C=C/c2ccccc2C)c1")
"> 25 µM"
>>> result_value("C[C@H](Nc1ncnc2nc[nH]c12)c1cc2cccc(Cl)c2c(=O)n1-c1ccccc1")
"5.92 µM"
>>> result_value("CN(C)S(=O)(=O)c1ccc(NC(=O)COC(=O)c2ccc(S(=O)(=O)N3CCCCC3)cc2)cc1")
"> 100 µM"
>>> result_value("N#Cc1cnc2cc(OC[C@H](O)CO)c(NC(=O)CC3CSSC3)cc2c1Nc1ccc(OCc2cccc(F)c2)c(Cl)c1")
"0.221 µM"
>>> result_value("COc1ccc2c(c1)O/C(=C\\c1cccc(OCC(=O)Nc3nc4c(s3)CCCC4)c1)C2=O")
"25.1 µM"
>>> result_value("O=C([O-])c1ccccc1Nc1ccccn1.O=C([O-])c1ccccc1Nc1ccccn1.[Ni+2]")
"> 100 µM"

====

Tested on: OVCAR-5 ovarian
assay.notes: NCI tumour cell line growth inhibition, 48 h
Entries and their TGI values follow.
experimental.endpoint: TGI

>>> result_value("COC(=O)[C@@H](C)C[C@H](Cc1ccccc1)NC(=O)c1nc([C@@H](C[C@H](C(C)C)N(C)C(=O)[C@@H](NC(=O)[C@H]2CCCCN2C)C(C)C)OC(C)=O)sc1C")
"> 16.7 µM"
>>> result_value("CC(C)(C)C1=Cc2cc3cc(C(C)(C)C)[nH]c(=O)c3cc2S(=O)(=O)N1")
"92.5 µM"
>>> result_value("CCN(Cc1ccc(F)c(F)c1)c1ccc(CO)c(Cl)c1")
"0.306 µM"
>>> result_value("CC(C)(C)OC(=O)C#CC[C@H]1CCCC1/C=C/C(O)=C1/C(=O)NC(CCCNC(=O)OC(C)(C)C)C1=O (stereo not given in full)")
"> 100 µM"
>>> result_value("O=Cc1cn(C(=O)c2ccccc2)c2ccccc12")
"> 100 µM"
>>> result_value("CN(C)NC(=S)Nc1ccccc1Br")
"> 100 µM"
>>> result_value("CCOC(=O)c1[nH]cc(C)c1-c1ccn(-c2ccccc2)c1")
"> 100 µM"
>>> result_value("CN(CCCN)CCCNc1nc2ccccc2c2[nH]c3ccccc3c12")
"0.652 µM"
>>> result_value("CN(C)C(CN)CC1=C(CC(CN)N(C)C)CCC1 (stereo not given)")
"> 100 µM"
>>> result_value("CCN(CC)S(=O)(=O)c1ccc(OC)c(Nc2ncc(-c3ccccc3)o2)c1")
"> 25 µM"

====

System: SK-MEL-5 melanoma
assay.notes: NCI tumour cell line growth inhibition, 48 h; in the data active = GI50 below about 0.43 µM; inactive = the rest
Outcome codes: active, inactive

>>> answer_label("CNC(=O)n1ccc2cc(Oc3ccnc(NC(=O)c4ccc(C5CCN(CCO)CC5)cc4)c3)c(OCCOC)cc21")
"inactive"
>>> answer_label("COc1ccc2c(CCCC(c3ccccc3)c3ccccc3)c3[n+](cc2c1OC)CCc1cc2c(cc1-3)OCO2")
"active"
>>> answer_label("COC1(C(=O)N[C@@H](C)c2ccc(-n3cc(F)cn3)nc2)CCC(c2nc(C)cc(Nc3cc(C)[nH]n3)n2)CC1 (stereo partly drawn)")
"inactive"
>>> answer_label("CC/C=C\\C=C/C(=O)N/C=C/CC1Cc2cccc(O)c2C(=O)O1 (stereo not drawn)")
"inactive"
>>> answer_label("O=CNc1c(Cl)cc2c(c1Cl)Cc1cc([N+](=O)[O-])ccc1-2")
"inactive"
>>> answer_label("C=C1C(=O)O[C@H]2[C@H]1CC/C(COC(=O)NCc1ccccc1OC)=C\\CC[C@@]1(C)O[C@@H]21")
"inactive"
>>> answer_label("COc1c(CCC[P+](c2ccccc2)(c2ccccc2)c2ccccc2)cc2c(c1OC)OCO2")
"inactive"
>>> answer_label("COC(=O)[C@H](Cc1cn(C)cn1)NC(=O)[C@H](Cc1c[nH]c2ccccc12)NC(=O)Nc1cc(C(F)(F)F)cc(C(F)(F)F)c1")
"inactive"
>>> answer_label("Nc1ccn(Cc2ccc(C34CC5CC(CC(C5)C3)C4)c(O)c2)c(=O)n1")
"inactive"
>>> answer_label("Nc1cc2cccc[n+]2c2cc(Cl)ccc12")
"inactive"
>>> answer_label("O=C1c2ccccc2-c2c1c1ccccc1c(=O)n2CCCNCCCNCCCn1c2c(c3ccccc3c1=O)C(=O)c1ccccc1-2")
"active"
>>> answer_label("N#Cc1cnc2cc(OC[C@H](O)CO)c(NC(=O)CC3CSSC3)cc2c1Nc1ccc(OCc2cccc(F)c2)c(Cl)c1")
"inactive"
>>> answer_label("COC(=O)[C@]12CC[C@@H](C)[C@H](C)[C@@H]1C1=CC[C@@H]3[C@@]4(C)C[C@@H](OC(C)=O)[C@H](O)[C@@](C)(COC(C)=O)[C@@H]4[C@H](O)C[C@@]3(C)[C@]1(C)CC2")
"inactive"
